Reference source: ChEMBL document CHEMBL4390677

Assignment: determine reported IC50 for the given molecules.
Target: Sphingosine kinase 1 (Homo sapiens)
Sequence (Q9NYA1 whole entry): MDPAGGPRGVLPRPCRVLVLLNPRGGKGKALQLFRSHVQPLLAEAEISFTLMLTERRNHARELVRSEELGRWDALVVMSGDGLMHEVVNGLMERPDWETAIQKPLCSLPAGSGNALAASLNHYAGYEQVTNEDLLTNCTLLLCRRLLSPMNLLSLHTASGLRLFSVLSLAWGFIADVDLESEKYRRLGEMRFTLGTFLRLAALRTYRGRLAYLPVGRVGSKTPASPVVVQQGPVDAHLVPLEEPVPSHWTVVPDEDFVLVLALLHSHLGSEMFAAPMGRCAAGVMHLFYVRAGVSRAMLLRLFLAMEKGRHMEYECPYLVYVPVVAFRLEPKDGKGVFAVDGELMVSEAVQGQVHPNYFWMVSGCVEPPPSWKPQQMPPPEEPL
Experiment: Inhibition of GFP-tagged SK1 (unknown origin) expressed in HEK293 cells using Sph as substrate measured after 30 mins in presence of [gamma32P]ATP by Cerenkov counting analysis
One number for each entry, in µM.

Look over these answered cases.
In [3]: df
Out[3]:
                                   compound                               system  reported_value
0  OC[C@H]1CCCN1Cc1ccc(COc2cccc(OCc3ccccc3F)c2)cc1  Sphingosine kinase 1 (Homo sapiens)           0.041
1  OC[C@H]1CCCN1Cc1ccc(COc2cccc(OCc3ccccc3Cl)c2)cc1  Sphingosine kinase 1 (Homo sapiens)           0.039

# per-item lookup of IC50; items listed below
1. OC[C@H]1CCCN1Cc1ccc(COc2cccc(OCc3ccc(Cl)cc3)c2)cc1
2. OC[C@H]1CCCN1Cc1ccc(COc2cccc(OCc3ccccc3)c2)cc1
3. OC[C@H]1CCCN1Cc1ccc(COc2cccc(OCc3ccc(F)cc3)c2)cc1

1: 4.13; 2: 0.014; 3: 0.17

###

Assignment: determine reported Ratio IC50 for the given molecules.
Species: Homo sapiens
Experiment: Selectivity index, ratio of IC50 for GFP-tagged SK1 (unknown origin) expressed in HEK293 cells to IC50 for purified SK2 (unknown origin)
Numbers only.

# per-item lookup of Ratio IC50; items listed below
1. OC[C@H]1CCCN1Cc1ccc(COc2cccc(OCc3ccc(F)cc3)c2)cc1
2. OC[C@H]1CCCN1Cc1ccc(COc2cccc(SCc3ccc(F)cc3)c2)cc1

3.5
45

# per-item lookup of Ratio IC50; items listed below
1. OC[C@H]1CCCN1Cc1ccc(COc2cccc(OCc3ccccc3F)c2)cc1
2. OC[C@H]1CCCN1Cc1ccc(COc2cccc(SCc3ccccc3)c2)cc1
3. O=S(=O)(Oc1cccc(OCc2ccc(CN3CCC[C@@H]3CO)cc2)c1)c1ccccc1

[0.75, 5.3, 0.012]

###

Target: Sphingosine kinase 1 (Homo sapiens)
Assay: Inhibition of GFP-tagged SK1 (unknown origin) expressed in HEK293 cells using Sph as substrate measured after 30 mins in presence of [gamma32P]ATP by Cerenkov counting analysis
Assignment: determine reported IC50 for the given compounds.
Give bare numbers, in nM.

Look over these answered cases.
                                   compound                               system  property_label  quantity_unit  reported_value
0  OC[C@H]1CCCN1Cc1ccc(COc2cccc(SCc3ccc(F)cc3)c2)cc1  Sphingosine kinase 1 (Homo sapiens)            IC50             nM             765
1  O=S(=O)(Cc1cccc(OCc2ccc(CN3CCC[C@@H]3CO)cc2)c1)c1ccccc1  Sphingosine kinase 1 (Homo sapiens)            IC50             nM             144
2  OC[C@H]1CCCN1Cc1ccc(COc2cccc(CCc3ccccc3)c2)cc1  Sphingosine kinase 1 (Homo sapiens)            IC50             nM              26
3  O=S(=O)(Oc1cccc(OCc2ccc(CN3CCC[C@@H]3CO)cc2)c1)c1ccccc1  Sphingosine kinase 1 (Homo sapiens)            IC50             nM              11
4  OC[C@H]1CCCN1Cc1ccc(COc2cccc(OCc3cccc(F)c3)c2)cc1  Sphingosine kinase 1 (Homo sapiens)            IC50             nM               9
5  OC[C@H]1CCCN1Cc1ccc(COc2cccc(OCc3cccc(Cl)c3)c2)cc1  Sphingosine kinase 1 (Homo sapiens)            IC50             nM              44
6  OC[C@H]1CCCN1Cc1ccc(COc2cccc(SCc3ccc(Cl)cc3)c2)cc1  Sphingosine kinase 1 (Homo sapiens)            IC50             nM            2360

Next compound, please.
Supply recorded IC50 for "OC[C@H]1CCCN1Cc1ccc(COc2cccc(SCc3ccccc3)c2)cc1" here.
137
